system: 653999-131-R-J2-PDC complex spheroids, growth inhibition; test: Anticancer human tumor 653999-131-R-J2-PDC patient-derived lung adenocarcinoma cell line growth inhibition [RAS]; conditions: second compound 0.003 µM; first compound 0.0316 µM; active compounds read low
Measure: viability, T/C (%)
Express your answer in %, writing the number without its unit.

Field: example entries. Status: answers known.
• Cc1nc(N2CCC3(CC2)COC(C)C3N)c(CO)nc1Sc1ccnc(N)c1Cl (centres undefined) + CCn1c(-c2cc(N3CCN(C)CC3)cnc2C(C)OC)c2c3cc(ccc31)-c1csc(n1)CC(NC(=O)C1CC1C)C(=O)N1CCCC(N1)C(=O)OCC(C)(C)C2 = 60.9
• CCC(CC)c1cc(NC2CCC(N)C2)n2nccc2n1 (centres undefined) + CCn1c(-c2cc(N3CCN(C)CC3)cnc2C(C)OC)c2c3cc(ccc31)-c1csc(n1)CC(NC(=O)C1CC1C)C(=O)N1CCCC(N1)C(=O)OCC(C)(C)C2 = 59.1
• CC(=O)OC12COC1CC(O)C1(C)C(=O)C(O)C3=C(C)C(OC(=O)C(O)C(NC(=O)OC(C)(C)C)c4ccccc4)CC(O)(C(OC(=O)c4ccccc4)C21)C3(C)C (centres undefined) + CCn1c(-c2cccnc2C(C)OC)c2c3cc(ccc31)N1CCOC(CC(NC(=O)C(C(C)C)N(C)C(=O)C3(F)CCN(C(=O)C#CC(C)(C)N(C)C)CC3)C(=O)N3CCCC(N3)C(=O)OCC(C)(C)C2)C1 = 59.5

Proceeding to the next molecule to report its viability, T/C.
## Task What value of measured viability, T/C is listed for CC1(O)CCCC1n1c(=O)c(C(F)F)cc2cnc(NC3CCN(S(C)(=O)=O)CC3)nc21 (centres undefined) + CCn1c(-c2cc(N3CCN(C)CC3)cnc2C(C)OC)c2c3cc(ccc31)-c1csc(n1)CC(NC(=O)C1CC1C)C(=O)N1CCCC(N1)C(=O)OCC(C)(C)C2 ?
## Result 52.4

----------
Test system: 653999-131-R-J2-PDC complex spheroids, growth inhibition
Experiment: Anticancer human tumor 653999-131-R-J2-PDC cell line growth inhibition [RAS];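 further: spheroids exposed to the agents for seven days before the readout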
Conditions: second compound 3.16 µM; first compound 0.316 µM; active compounds read low
Source text: RAS pathway inhibitors in Combinations in Complex Spheroids A high-throughput screen of multi-cell type tumor spheroids was designed to identify active combinations of RAS pathway inhibitors and targeted small molecules. Complex spheroids include a stromal component modeled by human endothelial cells (HUVEC) and fibroblasts modeled by human mesenchymal stem cells (MSCs). […] Compounds. […] If the clinical Cmax for an agent had not been determined, the highest concentration tested was 10 microM. […]
Reported viability, T/C values for a set of compounds

* CC(=O)OC12COC1CC(O)C1(C)C(=O)C(O)C3=C(C)C(OC(=O)C(O)C(NC(=O)OC(C)(C)C)c4ccccc4)CC(O)(C(OC(=O)c4ccccc4)C21)C3(C)C (stereo not drawn) + C#Cc1c(F)ccc2cc(O)cc(-c3ncc4c(N5CC6CCC(C5)N6)nc(OCC56CCCN5CC(F)C6)nc4c3F)c12 | 15.8%
* C=CC(=O)N1CCN(c2nc(OCC3CCCN3C)nc3c(F)c(-c4nc(N)cc(C)c4C(F)(F)F)c(Cl)cc23)C(C)C1 (stereo not drawn) + C#Cc1c(F)ccc2cc(O)cc(-c3ncc4c(N5CC6CCC(C5)N6)nc(OCC56CCCN5CC(F)C6)nc4c3F)c12 | 43.8%

## Task Which viability, T/C reading was recorded for the compound CCN1CCN(Cc2ccc(Nc3ncc(F)c(-c4cc(F)c5nc(C)n(C(C)C)c5c4)n3)nc2)CC1 + C#Cc1c(F)ccc2cc(O)cc(-c3ncc4c(N5CC6CCC(C5)N6)nc(OCC56CCCN5CC(F)C6)nc4c3F)c12 ?
## Result 33.3%
